Please provide measured IP-1 Ymax (%) for the entries that follow.
- target-of-assay: AGTR1 (Homo sapiens)
- Construct: host or cells: Pathunter CHO-K1 AGTR1 β-arrestin cell line (CHO-K1)
- Sequence (P30556 whole entry): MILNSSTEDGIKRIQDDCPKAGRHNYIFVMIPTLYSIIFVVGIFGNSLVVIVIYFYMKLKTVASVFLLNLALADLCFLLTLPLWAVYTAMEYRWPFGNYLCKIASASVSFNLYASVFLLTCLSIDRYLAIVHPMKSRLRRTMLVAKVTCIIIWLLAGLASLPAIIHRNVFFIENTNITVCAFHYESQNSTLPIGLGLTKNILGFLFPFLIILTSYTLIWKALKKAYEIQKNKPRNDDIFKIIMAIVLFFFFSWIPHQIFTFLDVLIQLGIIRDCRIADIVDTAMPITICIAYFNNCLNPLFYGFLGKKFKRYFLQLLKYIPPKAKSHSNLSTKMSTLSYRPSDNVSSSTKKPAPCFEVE
- measurement-protocol: DiscoveRx IP1 accumulation assay (HTRF), agonist mode, Pathunter CHO-K1 AGTR1 β-arrestin cell line
- Type: cell-based
- Experimental: In one aspect of the invention, signaling bias of compounds was assessed by comparing the relative activity of compounds to activate both the β-arrestin and Gq signaling pathways. […] Gq activation can be assessed by measuring the accumulation of inositol phosphates (e.g. IP3, IP1) that are liberated following activation of phospholipase C by Gq (Thomsen, Frazer et al. 2005). […] IP1 accumulation was measured in both agonist and antagonist modes. […]
Report only the number, with the unit % understood.

Ask: Tell me measured IP-1 Ymax (%) for `CCc1nc2c(C)cc(C)nc2n1Cc1cnc(-c2cc(-c3cccc(C)c3)ccc2-c2nnn[nH]2)nc1` please.
Reply: 5.7

Ask: State its IP-1 Ymax (%) for this molecule: `CCc1nc2c(C)cc(C)nc2n1Cc1ccc(-c2cc(-n3cccc3)ccc2-c2nn[nH]n2)cc1`
Reply: 6.0

Ask: Hello, please tell me recorded IP-1 Ymax (%) for this one: CCCC1=NC2(CCOC2)C(=O)N1Cc1ccc(-c2cc(-c3cccc(C)c3)ccc2-c2nnn[nH]2)cc1 (single isomer, unassigned) [Example 163]
Reply: 7.8

Ask: State its IP-1 Ymax (%) for this molecule: CCC1=NC2(CCOC2)C(=O)N1Cc1ccc(-c2cc(-c3cccc(C)c3)ccc2-c2nnn[nH]2)cc1 (single isomer, unassigned) [Example 166]
Reply: 14.8

Ask: Look up IP-1 Ymax (%) of `CCCC1=NC2(CCCC2)C(=O)N1Cc1ccc(-c2cc(-c3cc(OC)ccn3)ccc2-c2nn[nH]n2)cc1` and report it.
Reply: 13.6

Ask: Assign IP-1 Ymax (%) to the following record: `CCc1nc2c(C)cc(C)nc2n1Cc1ccc(-c2cc(-c3ccccc3)ccc2C(=O)O)nc1`
Reply: 5.6

Ask: Give a short answer stating reported IP-1 Ymax (%) for `CC1=NC2(CCCC2)C(=O)N1Cc1ccc(-c2cc(-c3cc(C)ccn3)ccc2-c2nn[nH]n2)cc1` .
Reply: 15.7
